# TESTED SYSTEM: HLA-A*3301 (human)
# PROCEDURE TEXT: competition vs 125I probe, purified HLA
# CONDITION SUMMARY: remark: other sources report otherwise
MEASUREMENT LABEL: IC50 (nM)
Write it as a number; the unit nM goes unstated.

The binder listed as SMLEVFEGR [MAGE2.226] has a reported IC50 of 9

Data provenance is patent US20060094649A1.
